Hey, just so you know, these numbers are from patent US20160135455A1.

Test system: winter rape (BRSNW, Brassica napus)
Test Summary: Postemergence greenhouse trial, herbicidal efficacy on winter rape
Type: in vivo
Setup Conditions: post-emergence, 528 h, applied alone at 35 g/ha, postemergence, rated after 20-22 d, read-out: % visual injury, Obs, BRSNW
Readout Kind: plant injury at 35 g/ha (%)
Kindly answer with a numeric value in %, unit omitted.

Worked cases, plant injury at 35 g/ha given:
Specify measured plant injury at 35 g/ha for Nc1c(F)c(-c2ccc3cc[nH]c3c2F)nc(C(=O)O)c1Cl .
99

Using known records, supply plant injury at 35 g/ha for CCOC(=O)c1nc(C(Cl)(Cl)Cl)n(-c2ccc(Cl)cc2Cl)n1 [fenchlorazole-ethyl, reference compound]
0

Determine its reported plant injury at 35 g/ha: COC(=O)c1nc(-c2ccc3ccn(C(=O)C(C)C)c3c2F)c(F)c(N)c1Cl
97

Provide measured plant injury at 35 g/ha value, entry: COC(=O)c1nc(-c2ccc3ccn(C(=O)C(C)(C)C)c3c2F)c(F)c(N)c1Cl
97

Give the value of plant injury at 35 g/ha reported for the following: COCC(=O)n1ccc2ccc(-c3nc(C(=O)OC)c(Cl)c(N)c3F)c(F)c21
75

Here is the next item to consider.
Consider the compound Nc1c(F)c(-c2ccc3cc[nH]c3c2F)nc(C(=O)OCc2ccccc2)c1Cl and give its recorded plant injury at 35 g/ha.
100

###

Listed compounds paired with reported pest or weed control at 35 g/ha
Test system: pigweed (AMARE, Amaranthus retroflexus)
Test Summary: Postemergence greenhouse trial, herbicidal efficacy on pigweed
Format: in vivo
Setup Conditions: post-emergence, 528 h, applied alone at 35 g/ha, postemergence, scored 20-22 d, read-out: Obs, % visual injury, AMARE
// note: answer is a bare numeric in %

As a guide, the following entries are already answered.
Given COC(=O)c1nc(-c2ccc3ccn(C(=O)C(C)C)c3c2F)c(F)c(N)c1Cl [compound 4] , respond with its pest or weed control at 35 g/ha.
100

Please indicate pest or weed control at 35 g/ha recorded for Nc1c(F)c(-c2ccc3cc[nH]c3c2F)nc(C(=O)O)c1Cl [compound 1]
100

Please find the next compound below.
Give reported pest or weed control at 35 g/ha value for COC(=O)c1nc(-c2ccc3ccn(C(C)=O)c3c2F)c(F)c(N)c1Cl [compound 3]
75

###

Items are presented alongside their recorded Obs, % visual injury, TRZAS.
Tested on: wheat (TRZAS), Triticum aestivum (spring wheat)
Test Summary: Postemergence greenhouse trial, crop injury (phytotoxicity/safening) on wheat
Format: in vivo
Setup Conditions: applied alone at 35 g/ha, scored 20-22 d, 0 = no injury, 100 = complete kill
Phrase the answer as number then unit, nothing more needed.

Provide Obs, % visual injury, TRZAS, tested on wheat (TRZAS), Triticum aestivum (spring wheat), for COC(=O)c1nc(-c2ccc3ccn(C(C)=O)c3c2F)c(F)c(N)c1Cl [compound 3] .
30%

###

System: pigweed (AMARE, Amaranthus retroflexus)
Test Summary: Postemergence greenhouse trial, herbicidal efficacy on pigweed
Type: in vivo
Setup Conditions: post-emergence, 528 h, applied alone at 35 g/ha, postemergence, scored 20-22 d, read-out: Obs, % visual injury, AMARE
Readout Kind: pest or weed control at 35 g/ha (%)
Unit % implied. Number only.

State its pest or weed control at 35 g/ha for this compound: Nc1c(F)c(-c2ccc3cc[nH]c3c2F)nc(C(=O)OCc2ccccc2)c1Cl [compound 2]
100

Give the measured pest or weed control at 35 g/ha for COCC(=O)n1ccc2ccc(-c3nc(C(=O)OC)c(Cl)c(N)c3F)c(F)c21 [compound 6]
100

Name the recorded pest or weed control at 35 g/ha of the compound listed here: COC(=O)c1nc(-c2ccc3ccn(C(=O)C(C)(C)C)c3c2F)c(F)c(N)c1Cl [compound 5]
100

Now consider a different compound.
State its pest or weed control at 35 g/ha for this compound: CCOC(=O)c1nc(C(Cl)(Cl)Cl)n(-c2ccc(Cl)cc2Cl)n1 [fenchlorazole-ethyl, reference compound]
0
